pIC50: −log10 of the molar value.
Collected from the literature: pIC50 of various molecules toward Collagenase 3 (Homo sapiens).
Property: pIC50

| Structure string | Target | Property | Reported measurement |
| --- | --- | --- | --- |
| CNC(=O)[C@@H](NC(=O)c1ccc(-c2cccc(CNC(=O)c3cc(C)n(C)n3)c2)o1)C1CCCCC1 | Collagenase 3 (Homo sapiens) | pIC50 | 7.14 |
| Nc1c[nH]c2c(C(=O)NCc3ccc4c(c3)NC(=O)CO4)ncnc12 | Collagenase 3 (Homo sapiens) | pIC50 | 4.70 to 7.00 |
| Nc1n[nH]c2c(C(=O)NCc3ccc4c(c3)NC(=O)CO4)ncnc12 | Collagenase 3 (Homo sapiens) | pIC50 | 7.00 to 8.52 |
| O=C1COc2cc(CNC(=O)c3nc4ccc(Cl)cc4c(=O)[nH]3)ccc2N1 | Collagenase 3 (Homo sapiens) | pIC50 | 4.70 to 7.00 |
